Reported EC50 values for the following compounds.
Test system: Vaccinia virus
Test: Antiviral activity against Vaccinia virus Lederle infected in human HEL cells assessed as reduction in virus-induced cytopathogenicity
Type: functional, organism-based
Details: Orthopoxvirus vaccinia

compound	EC50
COc1ccc(/C=C/c2nc(N)[nH]c(=O)c2Br)cc1OC	> 100 µM
Nc1nc(CC(O)c2ccccc2C(F)(F)F)c(Br)c(=O)[nH]1 (stereo not given)	> 100 µM
CCCCc1nc(N)[nH]c(=O)c1Br	> 100 µM
Cc1cc(C)c(/C=C/c2nc(N)[nH]c(=O)c2Br)c(C)c1	> 20 µM
CCCc1nc(N)[nH]c(=O)c1Br	> 100 µM
CCCCCc1nc(N)[nH]c(=O)c1Br	> 100 µM
Nc1nc(CCc2ccccc2)c(Br)c(=O)[nH]1	> 100 µM
Nc1nc2c(ncn2COCCO)c(=O)[nH]1 [ACYCLOVIR]	> 250 µM
CC(C)(O)Cc1nc(N)[nH]c(=O)c1Br	> 100 µM
Nc1nc(CC(O)c2ccc(Cl)cc2)c(Br)c(=O)[nH]1 (stereo not given)	> 100 µM
